# Test system: IGROV-1
# ASSAY_NOTES: NCI tumour cell line growth inhibition, 48 h
Activity calls are given as the source filed them. Cut-off read from the data, not from the text of the source: active = GI50 up to about 1.1 µM and inactive = higher.
Classes used: active, inactive

# MOLECULE, TESTED_TARGET, GROUP
rows = [
    ("CC(C)(C)c1cc(C(O)(C(F)(F)F)C(F)(F)F)c2c(c1)C(C(F)(F)F)(C(F)(F)F)OC(C(C)(C)C)N2 (stereo unspecified)", "IGROV-1", "inactive"),
    ("CC1OC2(CC(OCc3ccccc3)C1OCc1ccccc1)OCCO2 (stereo unspecified)", "IGROV-1", "inactive"),
    ("O=c1[nH]n(Cc2ccccc2Cl)c2ccc([N+](=O)[O-])cc12", "IGROV-1", "inactive"),
    ("CC(C)c1ccc2c(c1)/C(=C1/Nc3ccccc3C1=O)C(=O)N2", "IGROV-1", "inactive"),
    ("CC(Cn1c(=O)oc2ccccc21)N(C)C (stereo unspecified)", "IGROV-1", "inactive"),
    ("COc1c(OC)c(OC)c(C(=O)/C=C/c2ccccc2)c(OC)c1OC", "IGROV-1", "inactive"),
    ("O=C1C2c3[nH]c4ccccc4c3C3CCC(c4ccccc4)CC3C2C(=O)N1c1ccccc1 (stereo unspecified)", "IGROV-1", "inactive"),
    ("CC(CO)(CO)N1C(=O)C2C3c4ccccc4C(c4ccccc43)C2C1=O (stereo unspecified)", "IGROV-1", "inactive"),
    ("Cc1ccc(/N=N/c2c(O)ccc3ccccc23)c(C)c1", "IGROV-1", "inactive"),
    ("Cc1cn(C(Cc2ccccc2)OCCO)c(=O)[nH]c1=O (stereo unspecified)", "IGROV-1", "inactive"),
    ("CC[C@]12CCCN3CCc4c(n(c5ccccc45)C(=O)C1)[C@@H]32", "IGROV-1", "inactive"),
    ("COc1cc2c(/C=C3/C(=O)Nc4ccc(O)cc43)c(Cl)n(Cc3ccccc3)c2cc1C", "IGROV-1", "active"),
    ("CCc1n[nH]c(=O)n1CCCCCCCCCCCCn1c(CC)n[nH]c1=O", "IGROV-1", "inactive"),
    ("NC(=O)c1csc(C2CCC(CO)O2)n1 (stereo unspecified)", "IGROV-1", "inactive"),
    ("O=[N+]([O-])c1ccc(N2CCC(CCCC3CCN(c4ccc([N+](=O)[O-])cc4[N+](=O)[O-])CC3)CC2)c([N+](=O)[O-])c1", "IGROV-1", "inactive"),
    ("Nc1nc(NCCO)c(N=O)c(=O)[nH]1", "IGROV-1", "inactive"),
    ("COc1ccc(/C=C2\\N=C(SC)N(C)C2=O)cc1", "IGROV-1", "inactive"),
    ("c1ccc2c(c1)CCC/C2=N\\OCC1CO1 (stereo unspecified)", "IGROV-1", "inactive"),
    ("COc1ccc(CCNC(=O)[C@H]2CCCC[C@@H]2CCO)cc1OC", "IGROV-1", "inactive"),
    ("O=CC(O)C(O)C1OC(=O)c2cc(O)c(O)c(O)c2C2=C(O)C(O)=C3OC(=O)c4c(c(O)c(O)c5c4C3C2C(=O)O5)-c2c(cc(O)c(O)c2O)C(=O)OCC1O (stereo unspecified)", "IGROV-1", "inactive"),
    ("CC/C(=N\\NS(=O)(=O)c1ccccc1)c1ccccc1", "IGROV-1", "inactive"),
    ("Cn1c(=O)c2nc(CCCCc3nc4c(=O)n(C)c(=S)n(C)c4[nH]3)[nH]c2n(C)c1=S", "IGROV-1", "inactive"),
    ("CC[n+]1c(/C=C/c2ccc(N(CCCl)CCCl)cc2)ccc2cc(Br)ccc21", "IGROV-1", "active"),
    ("N#CC(C(=O)CCCC(=O)Nc1ccc(Cl)cc1Cl)c1ccccc1 (stereo unspecified)", "IGROV-1", "inactive"),
    ("CC(C)(C)C1CC[C@H](O)[C@H]([C@H](O)CC2CC(=O)N(c3ccccc3)C(=O)C2)C1 (stereo partly specified)", "IGROV-1", "inactive"),
    ("CCOC(=O)C1=C(C)N(C2OC(COC(=O)c3ccccc3)C(OC(=O)c3ccccc3)C2OC(=O)c2ccccc2)C(=S)NC1c1ccccc1 (stereo unspecified)", "IGROV-1", "inactive"),
    ("COC(=O)C(=O)C(C(=O)C=C(C)C)C(=O)C(=O)Nc1ccc(C)cc1C (stereo unspecified)", "IGROV-1", "inactive"),
    ("CNCCCNC1(c2cc3ccccc3s2)CCCCC1", "IGROV-1", "inactive"),
    ("O=c1[nH]c(=O)n(C2OC(CO)C(O)C2O)c2ncc(-c3ccc(-c4ccccc4)cc3)nc12 (stereo unspecified)", "IGROV-1", "inactive"),
    ("Cc1ccc(S(=O)(=O)N2CCC[C@@H]2C(=O)O[C@@H]2CCC3CC=CC32)cc1 (stereo partly specified)", "IGROV-1", "inactive"),
    ("CCOC(OC1=C(C#N)CCC1)C(C)[Se]c1ccccc1 (stereo unspecified)", "IGROV-1", "inactive"),
    ("O=C(CSc1nc(-c2ccccc2)c(-c2ccccc2)[nH]1)NNC(=S)Nc1ccccc1", "IGROV-1", "inactive"),
    ("COc1ccc(OC)c(C#Cc2ccc(OC)c(C(=O)NCCc3ccc(F)cc3)c2)c1", "IGROV-1", "inactive"),
    ("CC1=C(C(=O)OC(C)(C)C)C(c2ccc([N+](=O)[O-])cc2)C(C(=O)OC(C)(C)C)=C(C)N1", "IGROV-1", "inactive"),
    ("NC(=O)NNC(=O)NC12CC3CC(CC(C3)C1)C2", "IGROV-1", "inactive"),
    ("COc1cc2c(oc(=O)c3c4oc([Si](C)(C)C)cc4cc(OC)c23)c2cccc(O)c12", "IGROV-1", "inactive"),
    ("Cc1ccc2ccc(O)cc2c1", "IGROV-1", "inactive"),
    ("O=C(O)CCC(=O)C(=O)O", "IGROV-1", "inactive"),
    ("CN(C)c1ccc(/C=N/NC(=O)c2cnc3ccccc3c2)cc1", "IGROV-1", "inactive"),
    ("CCOC(=O)Nc1nn[nH]c1Cl", "IGROV-1", "inactive"),
    ("N#CC1=C(C#N)/C(=C(\\C#N)C(C#N)C#N)N=C1N", "IGROV-1", "inactive"),
]

* * *

# Test system: UO-31
# ASSAY_NOTES: NCI tumour cell line growth inhibition, 48 h
The source made the active and inactive calls. Rule as the data show it: active = GI50 up to about 1.1 µM and inactive = higher. Where a SMILES comes first, the peptide text is derived from it. The star is where a group is joined. Boc = CC(C)(C)OC(=O)*; OBn = c1ccc(CO*)cc1
Reported GI50 values for a set of molecules

# MOLECULE, GI50
records = [
    ("CCN(CC)CCn1ncc2c(N)ncnc21", "> 100 µM (inactive)"),
    ("Cn1c(-c2ccc(/N=N/Nc3ccc(-c4n[nH]c(=S)n4C)cc3)cc2)n[nH]c1=S", "2.85 µM (inactive)"),
    ("COC(=O)C12CC3CC(CC(C(=O)O)(C3)C1)C2", "> 100 µM (inactive)"),
    ("O=C(CCc1nnc(S)[nH]1)Nc1ccc(Cl)c(Cl)c1", "45.6 µM (inactive)"),
    ("Cc1ccc(-n2c(=S)[nH]c3ccc(Br)cc3c2=O)cc1", "> 100 µM (inactive)"),
    ("COC(=O)C1CCC(=O)N1C(c1ccccc1)c1cc(OC)c(OC)c(OC)c1 (centres undefined)", "55.1 µM (inactive)"),
    ("CC(C)CC(NC(=O)C(Cc1ccccc1)NC(=O)C(Cc1ccccc1)NC(=O)OC(C)(C)C)C(=O)OCc1ccccc1 (stereo not drawn) (Boc-Phe-Phe-Leu-OBn; configuration not given here)", "> 100 µM (inactive)"),
    ("COC(=O)c1ccc(/N=N/N(C)COc2ccc([N+](=O)[O-])cc2)cc1", "> 100 µM (inactive)"),
    ("O=C(Cc1c(C(=O)Nc2ccccc2)sc(C(=O)Nc2ccccc2)c1CC(=O)Nc1ccccc1)Nc1ccccc1", "> 100 µM (inactive)"),
]

* * *

# GI50 annotations
# Test system: SW-620
# ASSAY_NOTES: NCI tumour cell line growth inhibition, 48 h
Activity calls are given as the source filed them. Rule as the data show it: active = GI50 up to about 1.1 µM and inactive = higher.

# COMPOUND, GI50
records = [
    ("Cc1ccccc1NC(=O)Cc1csc(N/N=C2\\NC(=O)/C(=C/c3cccc([N+](=O)[O-])c3)S2)n1", "40.6 µM (inactive)"),
    ("COc1cc(/C=C/C(=O)c2c([O-])on[n+]2-c2ccccc2)ccc1O", "2.18 µM (inactive)"),
    ("COc1cc2c3c(c1)c1cc(OC)c(OC)cc1c[n+]3CC2", "> 50 µM (inactive)"),
    ("CCc1cccc(C(C)C)c1NC(=O)C(=O)C1C(=O)NC(=O)NC1=O", "> 100 µM (inactive)"),
    ("CC(C)/C=N\\N1C(N)=C(C#N)C(C#N)(C#N)C1C(C)C (stereo not given)", "34.6 µM (inactive)"),
    ("COc1cc(O)c2c(=O)cc(-c3ccc(O)cc3O)oc2c1CC=C(C)C", "24.3 µM (inactive)"),
    ("CC(C)(C)OC(=O)N[C@H]1CC(=O)c2ccccc2N(CC(=O)O)C1=O", "> 100 µM (inactive)"),
    ("N#Cc1nc(CN2C(=O)c3ccccc3C2=O)oc1N", "> 100 µM (inactive)"),
    ("Cc1ccccc1NC(=O)C(=O)Cc1cnc2ccccc2n1", "> 100 µM (inactive)"),
    ("COc1ccc(C(=O)CC2=Nc3nnc(CCCCCCCc4nnc5n4C(=O)C(CC(=O)c4ccc(OC)cc4)=N5)n3C2=O)cc1", "> 100 µM (inactive)"),
    ("CC(=O)Nc1ccc(C2SCc3nc4ccccc4n32)cc1 (stereo not given)", "> 100 µM (inactive)"),
    ("COc1ccc(/C=C2\\N=C(SC)N(C)C2=O)cc1", "80.2 µM (inactive)"),
    ("Cc1ccc(S(=O)(=O)NCc2cccc([N+](=O)[O-])c2)cc1", "> 100 µM (inactive)"),
    ("C[C@]12CCC(=O)C(O)=C1CC[C@@H]1[C@@H]2CC[C@]2(C)C(=O)CC[C@@H]12", "> 100 µM (inactive)"),
    ("N=C(N)N/N=C/c1ccc(O)c(C(=O)O)c1", "> 100 µM (inactive)"),
    ("COc1ccc(-c2cc(-c3cc(OC)c(OC)c(OC)c3)cc(-c3cc4ccccc4oc3=O)n2)cc1", "25.2 µM (inactive)"),
    ("CC(C)(C)C[P+](C)(C)c1ccccc1", "> 100 µM (inactive)"),
    ("CC(C)CCCC(C)[C@H]1CCC2[C@@H]3CCC4Cc5nc6c(nc5C[C@]4(C)C3CC[C@@]21C)CC1CC[C@@H]2C(CC[C@@]3(C)C2CC[C@@H]3O)[C@@]1(C)C6 (stereo not given in full)", "> 100 µM (inactive)"),
    ("COc1cc2c(OC)c(c1)CCCC1=CC(=O)C=C(CCC2)C1=O", "32.1 µM (inactive)"),
    ("O=C1CCC(=O)C1=NNc1cc(Cl)cc(Cl)c1", "> 100 µM (inactive)"),
]
